B1: library; a variant is named by its letters at N, in order (parent)
chain: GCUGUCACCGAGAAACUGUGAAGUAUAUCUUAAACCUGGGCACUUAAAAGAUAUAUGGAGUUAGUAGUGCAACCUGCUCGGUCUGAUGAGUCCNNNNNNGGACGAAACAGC

# Variants of: B1
# METHOD_DESCRIPTION: FACS-Seq fitted mean relative fluorescence mCherry/BFP without ligand (log10 relative fluorescence); HEK293T; ligand: cyclic di-GMP (c-di-GMP-II aptamer); higher = higher reporter protein expression
# RUN_PARAMETERS: ligand present: no
MEASUREMENT_NAME: FACS-Seq fitted mean (log10)

q: If you can, please state the reported FACS-Seq fitted mean (log10) value of ACUCUU .
a: -0.426

q: If you can, please state the reported FACS-Seq fitted mean (log10) value of CAAGUA .
a: -0.495

q: If you can, please state the reported FACS-Seq fitted mean (log10) value of GUUAUG .
a: -0.452

q: If you can, please state the reported FACS-Seq fitted mean (log10) value of GAAGUU .
a: -0.118

q: If you can, please state the reported FACS-Seq fitted mean (log10) value of GUGGUA .
a: -0.522

q: If you can, please state the reported FACS-Seq fitted mean (log10) value of CGGGUG .
a: -0.608

q: If you can, please state the reported FACS-Seq fitted mean (log10) value of CGGUGU .
a: -0.862

q: If you can, please state the reported FACS-Seq fitted mean (log10) value of AACCCC .
a: -0.0752

q: If you can, please state the reported FACS-Seq fitted mean (log10) value of CGUUCA .
a: -0.111

q: If you can, please state the reported FACS-Seq fitted mean (log10) value of ACGUAA .
a: -0.0329

q: If you can, please state the reported FACS-Seq fitted mean (log10) value of AGAAAA .
a: -0.765
